tested on: Pseudomonas aeurginosa NCTC 10490; test: MIC, two-fold dilution method, Pseudomonas aeurginosa NCTC 10490; format: cell-based; details: NCTC10490, Muller Hinton Broth, 10^6 CFU per ml, 37° C., 18 to 20 hours, read-out: Antibacterial Activity (MIC)
PARAMETER MEASURED: MIC (µg/mL)

Recorded results for 4 compounds are shown here.
COMPOUND: CCN1CCN(c2cc3c(cc2F)c(SCC2=C(C(=O)[O-])N4C(=O)C(NC(=O)/C(=N\OC)c5csc(N)n5)C4SC2)cc[n+]3C2CC2)CC1 (stereo not shown)
UNITS SYMBOL: µg/mL
RECORDED MEASUREMENT: 0.39
//
COMPOUND: C=CCO/N=C(\C(=O)NC1C(=O)N2C(C(=O)[O-])=C(CSc3cc[n+](CC)c4cc(N5CCN(CC)CC5)c(F)cc34)CSC12)c1csc(N)n1 (stereo not shown)
UNITS SYMBOL: µg/mL
RECORDED MEASUREMENT: 0.78
//
COMPOUND: CCN1CCN(c2cc3c(cc2F)c(SCC2=C(C(=O)[O-])N4C(=O)C(NC(=O)/C(=N\OC(C)(C)C(=O)O)c5csc(N)n5)C4SC2)cc[n+]3CC)CC1 (stereo not shown)
UNITS SYMBOL: µg/mL
RECORDED MEASUREMENT: 1.56
//
COMPOUND: C=CCO/N=C(\C(=O)NC1C(=O)N2C(C(=O)[O-])=C(CSc3cc[n+](CC)c4cc(N5CCNCC5)c(F)cc34)CS[C@H]12)c1csc(N)n1 (stereo partly shown)
UNITS SYMBOL: µg/mL
RECORDED MEASUREMENT: 3.13

1 = C=CCO/N=C(\C(=O)NC1C(=O)N2C(C(=O)[O-])=C(CSc3cc[n+](C)c4cc(N5CCNCC5)c(F)cc34)CS[C@H]12)c1csc(N)n1 (stereo partly shown)
2 = C#CCO/N=C(\C(=O)NC1C(=O)N2C(C(=O)[O-])=C(CSc3cc[n+](CC=C)c4cc(N5CCNCC5)c(F)cc34)CS[C@H]12)c1csc(N)n1 (stereo partly shown)
Request: From the recorded data, which exceeds the other in MIC: 1 or 2 ? Lab note: record the label of whichever item you select.
Result: 1

I = C#CCO/N=C(\C(=O)NC1C(=O)N2C(C(=O)[O-])=C(CSc3cc[n+](CC=C)c4cc(N5CCN(C)CC5)c(F)cc34)CSC12)c1csc(N)n1 (stereo not shown)
II = C=CC[n+]1ccc(SCC2=C(C(=O)[O-])N3C(=O)C(NC(=O)/C(=N\OC)c4csc(N)n4)[C@H]3SC2)c2cc(F)c(N3CCNCC3)cc21 (stereo partly shown)
Request: From the recorded data, which exceeds the other in MIC: I or II ? Lab note: record the label of whichever item you select.
Result: I

###

tested on: Staphylococcus epidermidis ATCC 12228
PARAMETER MEASURED: MIC (µg/mL)

Recorded results for 3 molecules are shown here.
MOLECULE: C=CC[n+]1ccc(SCC2=C(C(=O)[O-])N3C(=O)C(NC(=O)/C(=N\OC)c4csc(N)n4)C3SC2)c2cc(F)c(N3CCN(C)CC3)cc21 (stereo not drawn) [Compound I-14]
TGT: Staphylococcus epidermidis ATCC 12228
PARAMETER MEASURED: MIC
RECORDED MEASUREMENT: 0.39
//
MOLECULE: C=CCO/N=C(\C(=O)NC1C(=O)N2C(C(=O)[O-])=C(CSc3cc[n+](CC)c4cc(N5CCN(CC)CC5)c(F)cc34)CSC12)c1csc(N)n1 (stereo not drawn) [Compound I-31]
TGT: Staphylococcus epidermidis ATCC 12228
PARAMETER MEASURED: MIC
RECORDED MEASUREMENT: 0.78
//
MOLECULE: CO/N=C(\C(=O)NC1C(=O)N2C(C(=O)[O-])=C(CSc3cc[n+](C4CC4)c4cc(N5CCNCC5)c(F)cc34)CS[C@H]12)c1csc(N)n1 (stereo partly drawn) [Compound I-5]
TGT: Staphylococcus epidermidis ATCC 12228
PARAMETER MEASURED: MIC
RECORDED MEASUREMENT: 0.78

a = C=CCO/N=C(\C(=O)NC1C(=O)N2C(C(=O)[O-])=C(CSc3cc[n+](C4CC4)c4cc(N5CCNCC5)c(F)cc34)CS[C@H]12)c1csc(N)n1 (stereo partly drawn) [Compound I-25]
b = C#CCO/N=C(\C(=O)NC1C(=O)N2C(C(=O)[O-])=C(CSc3cc[n+](CC)c4cc(N5CCN(C)CC5)c(F)cc34)CSC12)c1csc(N)n1 (stereo not drawn) [Compound I-46]
c = CCN1CCN(c2cc3c(cc2F)c(SCC2=C(C(=O)[O-])N4C(=O)C(NC(=O)/C(=N\OC)c5csc(N)n5)C4SC2)cc[n+]3C2CC2)CC1 (stereo not drawn) [Compound I-7]
Request: Arrange the 3 entries by MIC so the values rise. Please reply with the labels ordered as requested. Many thanks.
Result: c, b, a
(c: 0.2 µg/mL, b: 0.39 µg/mL, a: 0.78 µg/mL)

###

system: Staphylococcus aureus ATCC 65389; assay: MIC, two-fold dilution method, Staphylococcus aureus ATCC 65389; format: cell-based; details: Muller Hinton Broth, 10^6 CFU per ml, 37° C., 18 to 20 hours
PARAMETER MEASURED: Antibacterial Activity (MIC) (µg/mL)

Recorded results for 6 compounds are shown here.
COMPOUND: C=CCO/N=C(\C(=O)NC1C(=O)N2C(C(=O)[O-])=C(CSc3cc[n+](CC=C)c4cc(N5CCNCC5C)c(F)cc34)CS[C@H]12)c1csc(N)n1 (some centres unmarked)
Antibacterial Activity (MIC), µg/mL: 0.78

COMPOUND: C=CCO/N=C(\C(=O)NC1C(=O)N2C(C(=O)[O-])=C(CSc3cc[n+](CC)c4cc(N5CCNCC5C)c(F)cc34)CS[C@H]12)c1csc(N)n1 (some centres unmarked)
Antibacterial Activity (MIC), µg/mL: 0.39

COMPOUND: C=CCO/N=C(\C(=O)NC1C(=O)N2C(C(=O)[O-])=C(CSc3cc[n+](C4CC4)c4cc(N5CCNCC5C)c(F)cc34)CS[C@H]12)c1csc(N)n1 (some centres unmarked)
Antibacterial Activity (MIC), µg/mL: 0.2

COMPOUND: CO/N=C(\C(=O)NC1C(=O)N2C(C(=O)[O-])=C(CSc3cc[n+](C)c4cc(N5CCNCC5C)c(F)cc34)CSC12)c1csc(N)n1 (centres unmarked)
Antibacterial Activity (MIC), µg/mL: 0.1

COMPOUND: C#CCO/N=C(\C(=O)NC1C(=O)N2C(C(=O)[O-])=C(CSc3cc[n+](C)c4cc(N5CCNCC5C)c(F)cc34)CS[C@H]12)c1csc(N)n1 (some centres unmarked)
Antibacterial Activity (MIC), µg/mL: 0.39

COMPOUND: C=CC[n+]1ccc(SCC2=C(C(=O)[O-])N3C(=O)C(NC(=O)/C(=N\OC)c4csc(N)n4)C3SC2)c2cc(F)c(N3CCNCC3C)cc21 (centres unmarked)
Antibacterial Activity (MIC), µg/mL: 0.2

A = CC1CNCCN1c1cc2c(cc1F)c(SCC1=C(C(=O)[O-])N3C(=O)C(NC(=O)/C(=N\OC(C)(C)C(=O)O)c4csc(N)n4)[C@H]3SC1)cc[n+]2C (some centres unmarked)
B = C#CCO/N=C(\C(=O)NC1C(=O)N2C(C(=O)[O-])=C(CSc3cc[n+](CC)c4cc(N5CCNCC5C)c(F)cc34)CS[C@H]12)c1csc(N)n1 (some centres unmarked)
C = CO/N=C(\C(=O)NC1C(=O)N2C(C(=O)[O-])=C(CSc3cc[n+](C)c4cc(-n5cnc(C)c5)c(F)cc34)CSC12)c1csc(N)n1 (centres unmarked)
D = C=CCO/N=C(\C(=O)NC1C(=O)N2C(C(=O)[O-])=C(CSc3cc[n+](C)c4cc(N5CCNCC5C)c(F)cc34)CS[C@H]12)c1csc(N)n1 (some centres unmarked)
Request: Arrange the 4 entries by Antibacterial Activity (MIC) so the values rise. Please reply with the labels ordered as requested. Many thanks.
Result: D, C, B, A

###

// values below are MIC; system is Bacillus subtilis ATCC 6633
PARAMETER MEASURED: MIC (µg/mL)

COMPOUND: C#CCO/N=C(\C(=O)NC1C(=O)N2C(C(=O)[O-])=C(CSc3cc[n+](C4CC4)c4cc(N5CCN(C)CC5)c(F)cc34)CSC12)c1csc(N)n1 (centres unmarked)
MIC / µg/mL: 0.2
//
COMPOUND: CCN1CCN(c2cc3c(cc2F)c(SCC2=C(C(=O)[O-])N4C(=O)C(NC(=O)/C(=N\OC(C)(C)C(=O)O)c5csc(N)n5)C4SC2)cc[n+]3CC)CC1 (centres unmarked)
MIC / µg/mL: 3.13
//
COMPOUND: C=CC[n+]1ccc(SCC2=C(C(=O)[O-])N3C(=O)C(NC(=O)/C(=N\OC)c4csc(N)n4)C3SC2)c2cc(F)c(N3CCN(CC)CC3)cc21 (centres unmarked)
MIC / µg/mL: 0.1

P = C=CCO/N=C(\C(=O)NC1C(=O)N2C(C(=O)[O-])=C(CSc3cc[n+](CC=C)c4cc(N5CCN(CC)CC5)c(F)cc34)CSC12)c1csc(N)n1 (centres unmarked)
Q = C#CCO/N=C(\C(=O)NC1C(=O)N2C(C(=O)[O-])=C(CSc3cc[n+](C)c4cc(N5CCN(C)CC5)c(F)cc34)CSC12)c1csc(N)n1 (centres unmarked)
Request: From the recorded data, which exceeds the other in MIC: P or Q ? Lab note: record the label of whichever item you select.
Result: Q
